The values you see were collected from ChEMBL document CHEMBL3797047.

# IC50 annotations
- study.target: Serine/threonine-protein kinase 17B (Homo sapiens, UniProt O94768)
- Sequence (O94768 whole entry): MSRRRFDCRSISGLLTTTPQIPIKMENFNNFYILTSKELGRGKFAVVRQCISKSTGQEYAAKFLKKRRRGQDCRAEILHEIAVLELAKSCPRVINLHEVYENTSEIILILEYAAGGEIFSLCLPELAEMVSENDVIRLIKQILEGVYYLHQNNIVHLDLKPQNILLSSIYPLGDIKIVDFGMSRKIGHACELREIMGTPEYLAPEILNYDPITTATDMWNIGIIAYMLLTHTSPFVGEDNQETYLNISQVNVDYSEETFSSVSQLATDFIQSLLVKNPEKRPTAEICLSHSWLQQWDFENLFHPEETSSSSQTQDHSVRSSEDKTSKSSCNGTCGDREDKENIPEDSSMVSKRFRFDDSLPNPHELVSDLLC
endpoint.name: IC50 (nM)

• O=C1Nc2ccc(NC(=O)c3ccccc3F)cc2/C1=C1/Nc2ccccc2/C1=N\O = 290
• CC(C)(C)CC(=O)Nc1ccc2c(c1)/C(=C1/Nc3ccccc3/C1=N\O)C(=O)N2 = 14
• Nc1ccc2c(c1)/C(=C1/Nc3ccccc3/C1=N\O)C(=O)N2 = 250
